Target: recombinant DYRK1A kinase (Homo sapiens (Human), UniProt Q13627)
Experiment: DYRK1A kinase assay (Ser/Thr 18 peptide Z-lyte, FRET)
Conditions: DYRK1A kinase; head says EC50, method says IC50; ATP 30 μM
MEASURED_METRIC: EC50 (nM)

Example cases with answers are listed next.
>  <SMILES_TEXT>
O=C(Nc1cc2cc(-c3cncc(NC4CCNCC4)n3)ccc2cn1)C1CC(F)(F)C1

>  <UNITS>
nM

>  <EC50>
1

$$$$
>  <SMILES_TEXT>
Cc1cncc(-c2ccc3cnc(NC(=O)CN4CCOCC4)cc3c2)c1

>  <UNITS>
nM

>  <EC50>
9

$$$$
>  <SMILES_TEXT>
CN1CCC(Nc2cncc(-c3ccc4cnc(NC(=O)c5ccc(F)cc5)cc4c3)c2)CC1

>  <UNITS>
nM

>  <EC50>
3

$$$$

(I) CC(C)N1CCC(Nc2cncc(-c3ccc4cnc(NC(=O)C5CC(F)(F)C5)cc4c3)n2)CC1
(II) O=C(Nc1cc2cc(-c3cncc(NCC4(F)CNC4)n3)ccc2cn1)C1CC1
(III) Cc1ncc(-c2ccc3cnc(NC(=O)C4CCN(C)CC4)cc3c2)cn1
(Q) List from greatest to least EC50. Please write the labels in the order that was asked for.
(A) III, I, II
